Let's look at some compounds and their measured CEM.T2 % Residual Binding.
assay-target: HLA A*0201 on CEM.T2 cell line (Homo sapiens, UniProt P04439, D140Y/D185E/D98H/E176V/E277Q/G131W/G231S/I119V/I121R/I166T/I218V/L300P/L318F/N151K/N90K/P208A/P217A/Q86G/Q94H/R138H/R169H/T345S)
Construct: This cell line expresses HLA A*0201 but is deficient for TAP transporter; endogenous in cells; host or cells: CEM.T2 (T2) cell line
protocol: Cellular dissociation assay on CEM.T2 cells
Format: cell-based
experimental-conditions: after Brefeldin A 1 h and 3 h in serum-free RPMI at 37° C. (4 h)
Residues, ends and D or L forms follow the SMILES beside them.
parameter-measured: CEM.T2 % Residual Binding (%)

# compound, quantitative-readout
measured = [
    ("CC(C)[C@H](NC(=O)[C@@H](NC(=O)[C@@H](NC(=O)[C@@H](NC(=O)[C@@H](NC(=O)[C@H](CC(=O)O)NC(=O)[C@H](CO)NC(=O)[C@@H](NC(=O)CN)[C@@H](C)O)C(C)C)C(C)C)[C@@H](C)O)C(C)C)C(=O)O [Peptide 35] (H-GTSDVVTVV-OH; N-terminus and C-terminus assumed)", 0),
    ("CC[C@H](C)[C@H](NC(=O)[C@H](Cc1c[nH]cn1)NC(=O)[C@H](Cc1c[nH]c2ccccc12)NC(=O)[C@H](CC(C)C)NC(=O)[C@H](CC(N)=O)NC(=O)[C@H](CCC(N)=O)NC(=O)[C@@H](N)CC(=O)O)C(=O)NCC(=O)N[C@@H](CCCNC(=N)N)C(=O)O [Peptide 255]", 0),
    ("CSCC[C@H](NC(=O)[C@@H](N)CO)C(=O)N[C@@H](CC(N)=O)C(=O)NCC(=O)N[C@@H](CCC(N)=O)C(=O)N1CCC[C@H]1C(=O)N[C@@H](CC(C)C)C(=O)N[C@H](C(=O)N[C@@H](CS)C(=O)O)[C@@H](C)O [Peptide 215] (H-SMNGQPLTC-OH; N-terminus and C-terminus assumed)", 0),
]
